# Test system: NCI-H2023
# ASSAY_COMMENT: relative viability (nuclei count vs DMSO), 5 days (fraction); higher = more cells survive
# MEASUREMENT_PARAMETERS: first compound 0.01581 µM
Sorting guide: entries reporting relative viability beneath 0.5 go in the True pile, the rest go in the False pile.

[ask] Please state whether relative viability is below 0.5 for COc1cc2nccc(Oc3ccc(NC(=O)Nc4cc(C)on4)c(Cl)c3)c2cc1OC [Tivozanib] + N=C(N)NC(=N)NCCc1ccccc1 [Phenformin] (partner 250 µM)
[reply] True

[ask] Please check: relative viability for COc1cc2nccc(Oc3ccc(NC(=O)Nc4cc(C)on4)c(Cl)c3)c2cc1OC [Tivozanib] + Cc1nc(Nc2ncc(C(=O)Nc3c(C)cccc3Cl)s2)cc(N2CCN(CCO)CC2)n1 [Dasatinib] (partner 0.075 µM) , strictly under 0.5 or not?
[reply] False

[ask] hey, is relative viability for Nc1ccn([C@@H]2O[C@H](CO)[C@@H](O)[C@@H]2O)c(=O)n1 [Cytarabine] + Cc1nc(Nc2ncc(C(=O)Nc3c(C)cccc3Cl)s2)cc(N2CCN(CCO)CC2)n1 [Dasatinib] (partner 0.075 µM) lower than 0.5 or not?
[reply] True

[ask] In the record for Nc1ccn([C@@H]2O[C@H](CO)[C@@H](O)[C@@H]2O)c(=O)n1 [Cytarabine] + COc1cccc2cc(-c3nc([C@H]4CC[C@H](C(=O)O)CC4)n4ncnc(N)c34)[nH]c12 [OSI-027] (partner 0.5 µM) , is relative viability less than 0.5?
[reply] True

[ask] Bench note: check whether COc1cc2nccc(Oc3ccc(NC(=O)Nc4cc(C)on4)c(Cl)c3)c2cc1OC [Tivozanib] + COc1cc2c(Oc3ccc(NC(=O)C4(C(=O)Nc5ccc(F)cc5)CC4)cc3F)ccnc2cc1OCCCN1CCOCC1 [Foretinib] (partner 0.25 µM) shows relative viability below 0.5
[reply] False
